In this section, each of the compounds is paired with its reported IC50.
Target: Short transient receptor potential channel 6 (Mus musculus)
Assay: TRPC6 inhibitor potency, dose response, cell-based, mouse TRPC6, HEK293, membrane potential (AID 2696)
Conditions: TRPC6-expressing HEK293 cells, membrane potential dye fluorescence, acetylcholine-stimulated

Per the records, this compound ( CN(C)C/C=C/C(O)(c1ccccc1)c1ccccc1 ) has IC50 equal to 10 µM

O=[N+]([O-])c1ccc(N=Nc2c(Cl)cc(O)cc2Cl)cc1 has a reported IC50 of 25.1 µM

Reported IC50 of CC(O)CNCCNCc1c(OCc2ccccc2)ccc2ccccc12 (stereo not drawn) : 44.7 µM

IC50 for Cc1cccc2sc(N(CCCN(C)C)C(=O)c3ccc(Cl)s3)nc12 is 70.8 µM

IC50 in this record for CCN1C(=O)/C(=C\N2CCCCCC2)SC1=S : 14.1 µM

Reported IC50 for CC(=O)OCC[N+](C)(C)C was 1.58 µM

Briefly, IC50 measured for N#Cc1c(-n2cccc2/C=N/O)sc2c1CCCC2 : 39.8 µM

Record summary for CCCC(CCC)C(=O)OC1C[C@H]2CC[C@@H](C1)[N+]2(C)C (stereo partly drawn) : reported IC50 = 3.55 µM

---

Biological target: Short transient receptor potential channel 6 (Mus musculus) (UniProt Q61143)
Sequence (Q61143 whole entry, looked up): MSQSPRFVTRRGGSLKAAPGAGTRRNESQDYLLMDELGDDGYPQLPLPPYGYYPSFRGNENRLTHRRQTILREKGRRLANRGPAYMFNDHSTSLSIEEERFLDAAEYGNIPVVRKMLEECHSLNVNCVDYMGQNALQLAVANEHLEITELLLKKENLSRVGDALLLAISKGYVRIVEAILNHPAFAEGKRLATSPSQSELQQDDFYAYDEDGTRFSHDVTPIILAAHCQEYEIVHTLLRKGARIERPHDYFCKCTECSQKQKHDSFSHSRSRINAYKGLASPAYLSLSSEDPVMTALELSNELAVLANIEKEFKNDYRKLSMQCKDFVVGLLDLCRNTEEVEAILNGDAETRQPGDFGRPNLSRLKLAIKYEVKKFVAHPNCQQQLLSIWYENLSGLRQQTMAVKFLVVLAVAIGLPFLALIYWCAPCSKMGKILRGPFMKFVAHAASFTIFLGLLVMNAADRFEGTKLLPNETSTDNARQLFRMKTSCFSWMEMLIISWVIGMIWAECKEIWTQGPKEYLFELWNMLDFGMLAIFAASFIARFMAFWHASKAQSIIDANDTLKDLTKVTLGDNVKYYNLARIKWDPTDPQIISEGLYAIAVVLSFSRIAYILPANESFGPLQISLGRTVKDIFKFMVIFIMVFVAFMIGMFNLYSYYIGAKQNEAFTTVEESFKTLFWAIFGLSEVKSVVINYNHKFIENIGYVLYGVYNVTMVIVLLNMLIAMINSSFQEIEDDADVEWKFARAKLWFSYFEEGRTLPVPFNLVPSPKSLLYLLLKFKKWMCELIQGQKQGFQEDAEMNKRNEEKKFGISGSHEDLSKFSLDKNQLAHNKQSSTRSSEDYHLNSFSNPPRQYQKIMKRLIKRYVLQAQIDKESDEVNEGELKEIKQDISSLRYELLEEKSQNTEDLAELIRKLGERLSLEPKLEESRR
Test: TRPC6 inhibitor potency, dose response, cell-based, mouse TRPC6, HEK293, membrane potential (AID 2696)
Conditions: TRPC6-expressing HEK293 cells, membrane potential dye fluorescence, acetylcholine-stimulated
Property Label: IC50

// known answers, use as guide
Per the record, CN(C)CCNS(=O)(=O)c1ccc(N2CCN(c3ccc(F)cc3)CC2)c([N+](=O)[O-])c1 has IC50 of 56.2 µM

Lab note: measured IC50 of O=C(c1ccc(C(F)(F)F)cc1)C1CCCN(C2CCSCC2)C1 (configuration not stated) was 39.8 µM

According to the records, this compound Cc1c(Cl)cccc1Nc1nc(NCCO)c2ccccc2n1 displays IC50 of 79.4 µM

get_value(item= c1ccc(-c2nc(-c3ccccn3)nc(-c3ccccn3)n2)nc1 , readout=IC50) returns 44.7 µM

Reported IC50 ( Cc1cc(C)c2nc(N3CCC(C(=O)NCCCN4CCCCC4)CC3)sc2c1 ) = 39.8 µM

For this compound ( CC[N+](C)(C)CC/C=C1/c2ccccc2Sc2ccc(Cl)cc21 ), measured IC50 is 1.58 µM

Briefly, IC50 measured for CC[N+](CC)(CC)CCCOC(=O)C(O)(c1ccccc1)C1CCCCC1 (configuration not stated) : 0.06 µM

Per the record, Cc1ccccc1Nc1nc(N)c2ccccc2n1 has IC50 of 44.7 µM

More entries:
Please fill in: IC50 reported for Cc1cc(-n2cccn2)ccc1CN1CCN(CC(C)C)C(CCO)C1 (configuration not stated) = 11.2 µM

Please fill in: IC50 reported for c1ccc(CNc2c3ccccc3nc3ccccc23)cc1 = 70.8 µM

IC50 in this record for CN(C)c1cc(NC(=O)CN2CCCC2)c2ccccc2n1 : 44.7 µM

---

# Lookup of reported IC50 keyed by entry
Molecular target: Short transient receptor potential channel 6 (Mus musculus)
Assay: TRPC6 inhibitor potency, dose response, cell-based, mouse TRPC6, HEK293, membrane potential (AID 2696)
Settings: TRPC6-expressing HEK293 cells, membrane potential dye fluorescence, acetylcholine-stimulated

Value of IC50 reported for the compound C=C(C)c1cccc(C(C)(C)NC(=O)NCCN(CC)CC)c1 is 28.2 µM

Field IC50 (entry CCCCCCCCCCn1ccc(=N)cc1 ) reads 39.8 µM

Looking up CC[N+](C)(CC)CCC/C(=N/O)C(O)(c1ccccc1)c1ccccc1 , I found its IC50 recorded as 15.8 µM

// IC50 lookup, compound = Nc1nc(Nc2cccc(F)c2)nc2ccccc12 , result: 39.8 µM

# IC50 (compound: COc1ccc(-n2nc(C(=O)c3cccs3)cc(-c3nc4ccccc4[nH]3)c2=N)cc1 ) is 50.1 µM

Now examine the next entry.
Form field IC50, entry Cc1ccc(OCCCCCCN2CCNCC2)cc1 : 79.4 µM
